Biological target: Tumor necrosis factor receptor superfamily member 10B (Homo sapiens) (UniProt O14763)
Sequence (O14763 whole entry, looked up): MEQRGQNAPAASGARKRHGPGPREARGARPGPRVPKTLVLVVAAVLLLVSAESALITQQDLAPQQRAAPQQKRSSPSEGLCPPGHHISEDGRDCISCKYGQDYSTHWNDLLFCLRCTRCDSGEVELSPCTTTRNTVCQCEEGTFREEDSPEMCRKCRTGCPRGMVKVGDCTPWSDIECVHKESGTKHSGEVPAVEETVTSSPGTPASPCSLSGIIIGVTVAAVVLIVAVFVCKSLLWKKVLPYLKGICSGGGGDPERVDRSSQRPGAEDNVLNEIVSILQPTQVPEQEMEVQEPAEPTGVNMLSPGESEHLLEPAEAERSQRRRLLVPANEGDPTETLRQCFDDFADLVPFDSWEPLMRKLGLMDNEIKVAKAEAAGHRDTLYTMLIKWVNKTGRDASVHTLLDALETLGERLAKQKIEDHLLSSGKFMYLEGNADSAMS
Assay: compound enhancement of TRAIL-induced cell killing – NB7 cells plus caspase-8, luminescence, panel, dose response (AID 652002)
Details: NB7 neuroblastoma +caspase-8, TRAIL sensitization, luminescence viability; NB7+Caspase-8; with TRAIL, mean of runs
Active and inactive are the calls of the source. How the calls were made is not given here.
endpoint.label: EC50

Here is how some compounds turned out for EC50.
Entry O=C(Nc1ccc2[nH]ccc2c1)c1cccs1 , tested on Tumor necrosis factor receptor superfamily member 10B (Homo sapiens) (UniProt O14763), has a reported EC50 of inactive

Entry O=C(c1cnc(Cl)c(Cl)c1)N1CCN(S(=O)(=O)c2ccc3ccccc3c2)CC1 , tested on Tumor necrosis factor receptor superfamily member 10B (Homo sapiens) (UniProt O14763), has a reported EC50 of > 12.5 µM (inactive)

Entry CC(C)C(=O)Nc1ccc(NC(=O)c2ccccn2)cn1 , tested on Tumor necrosis factor receptor superfamily member 10B (Homo sapiens) (UniProt O14763), has a reported EC50 of inactive

Entry O=c1[nH]c(N/N=C\c2ccc3c(c2)OCO3)nc2ccccc12 , tested on Tumor necrosis factor receptor superfamily member 10B (Homo sapiens) (UniProt O14763), has a reported EC50 of inactive

Entry Cc1nc2cc(NC(=O)Nc3cccc([N+](=O)[O-])c3)ccc2n1C , tested on Tumor necrosis factor receptor superfamily member 10B (Homo sapiens) (UniProt O14763), has a reported EC50 of inactive

Others:
Entry O=C(NC1=NCCS1)c1cc2ccccc2o1 , tested on Tumor necrosis factor receptor superfamily member 10B (Homo sapiens) (UniProt O14763), has a reported EC50 of inactive

Entry CCOc1ccc(NC(=O)Nc2cccs2)cc1 , tested on Tumor necrosis factor receptor superfamily member 10B (Homo sapiens) (UniProt O14763), has a reported EC50 of inactive
